Exercise: for every item that follows, state its recorded inhibition at 100 µM.
Tested on: human cervical cancer cell line Hela
protocol: WST-8 antiproliferative assay, Hela
Format: cell-based
applied_conditions: 100 µM, WST-8 assay, read-out: Growth Inhibition (GI%) Hela
Unit % implied. Number only.

Sure, the documented inhibition at 100 µM for COc1cc(/C(C)=N/O)ccc1OC(=O)c1cc(-c2ccc(C)cc2)n(-c2ccc(S(N)(=O)=O)cc2)n1 is 78

Sure, the documented inhibition at 100 µM for COc1ccc(-c2cc(C(=O)Oc3ccc(C(C)=O)cc3OC)nn2-c2ccccc2)cc1OC is 73

Sure, the documented inhibition at 100 µM for COc1ccc(-c2cc(C(=O)Oc3ccc(/C(C)=N/O)cc3OC)nn2-c2ccccc2)cc1 is 78

Sure, the documented inhibition at 100 µM for COc1ccc(-c2cc(C(=O)Nc3ccc(C(C)=O)cc3)nn2-c2ccc(S(N)(=O)=O)cc2)cc1 is 0

Sure, the documented inhibition at 100 µM for COc1cc(/C(C)=N/O)ccc1OC(=O)c1cc(-c2ccccc2)n(-c2ccc(S(N)(=O)=O)cc2)n1 is 107

Sure, the documented inhibition at 100 µM for COc1ccc(-c2cc(C(=O)Nc3ccc(/C(C)=N/O)cc3)nn2-c2ccc(S(N)(=O)=O)cc2)cc1 [Compound 10b] is 2

Sure, the documented inhibition at 100 µM for COc1ccc(-c2cc(C(=O)Oc3ccc(/C(C)=N/O)cc3OC)nn2-c2ccccc2)cc1OC is 77

Sure, the documented inhibition at 100 µM for COc1ccc(-c2cc(C(=O)Nc3ccc(C(C)=O)cc3)nn2-c2ccc(S(N)(=O)=O)cc2)cc1OC is 9

Sure, the documented inhibition at 100 µM for COc1cc(/C(C)=N/O)ccc1OC(=O)c1cc(-c2ccc(C)cc2)n(-c2ccccc2)n1 is 60

Sure, the documented inhibition at 100 µM for COc1ccc(-c2cc(C(=O)Nc3ccc(/C(C)=N/O)cc3)nn2-c2ccc(S(N)(=O)=O)cc2)cc1OC [Compound 10c] is 75

Sure, the documented inhibition at 100 µM for COc1cc(C(C)=O)ccc1OC(=O)c1cc(-c2ccc(Cl)cc2)n(-c2ccccc2)n1 is 104

Sure, the documented inhibition at 100 µM for COc1cc(/C(C)=N/O)ccc1OC(=O)c1cc(-c2ccc(Cl)cc2)n(-c2ccc(S(N)(=O)=O)cc2)n1 is 100

Sure, the documented inhibition at 100 µM for COc1cc(C(C)=O)ccc1OC(=O)c1cc(-c2ccccc2)n(-c2ccc(S(N)(=O)=O)cc2)n1 is 16

Sure, the documented inhibition at 100 µM for COc1ccc(-c2cc(C(=O)Oc3ccc(C(C)=O)cc3OC)nn2-c2ccc(S(N)(=O)=O)cc2)cc1 is 0

Sure, the documented inhibition at 100 µM for COc1ccc(-c2cc(C(=O)Oc3ccc(C(C)=O)cc3OC)nn2-c2ccc(S(N)(=O)=O)cc2)cc1OC is 10

Sure, the documented inhibition at 100 µM for COc1cc(C(C)=O)ccc1OC(=O)c1cc(-c2ccc(C)cc2)n(-c2ccccc2)n1 is 83

Sure, the documented inhibition at 100 µM for C/C(=N\O)c1ccc(NC(=O)c2cc(-c3ccccc3)n(-c3ccc(S(N)(=O)=O)cc3)n2)cc1 [Compound 10a] is 0

Sure, the documented inhibition at 100 µM for COc1cc(C(C)=O)ccc1OC(=O)c1cc(-c2ccc(Cl)cc2)n(-c2ccc(S(N)(=O)=O)cc2)n1 is 101
